Experiment: Plasma pharmacokinetics of BIA 10-2474 and metabolites
Format: in vivo, human
Details: both, human, plasma, oral, mean terminal elimination half-life, Day 10
Readout Label: half-life

# Structure As Smiles, Reported
rows = [
    ("CN(C(=O)n1cnc(-c2ccc[n+]([O-])c2)c1)C1CCCCC1", "8 to 10 h"),
]

----------
Assay: Plasma pharmacokinetics of BIA 10-2474 and metabolites
Assay type: in vivo, human
Details: both, human, plasma, oral, 2.5 mg, AUC0–t, single dose 2.5 mg

# Compound, AUC(0-t) [ng·h/mL]
records = [
    ("CN(C(=O)n1cnc(-c2ccc[n+]([O-])c2)c1)C1CCCCC1 [BIA 10-2474]", 289),
]
